Target: Uracil-DNA glycosylase (Homo sapiens);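 also: UNG excision on a quenched double-stranded DNA oligo probe, with APE1 added for strand incision and turnover, read as fluorescence at 594 nm as strands separate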
Settings: Compound Concentration 10.0 uM, Hit No
Description: Inhibition of UNG by quantifying inhibition of UNG-mediated cleavage and dissociation of quenched duplex DNA oligonucleotides, measured as fluorescence at 594 nm. To generate a functional strand incision and increase turn-over this assay is coupled to APE1.
What inhibition was measured for each of the following?
Write the value in % as a bare number.

Query: What is its inhibition for Uracil-DNA glycosylase (Homo sapiens)? Entry: COc1ccc2[nH]cc(CCNC(C)=O)c2c1
Response: -7.83

Query: Likewise for Cc1c(NC(=O)c2cc(C(N)=O)nc3cc(F)ccc23)c(C(F)(F)F)nn1Cc1ccc(C#N)cc1 ?
Response: 1.44

Query: Likewise for CNC(=O)c1cc(C(=O)N[C@H]2[C@@H]3COC[C@@H]32)cc2c1O[C@H](CF)[C@H]2c1ccccc1 ?
Response: 2.78

Query: Likewise for CCc1nc2c(o1)CC(c1ccc(C)cc1C)CC2=O (stereo unspecified) ?
Response: 0.136

Query: Likewise for NCCc1c[nH]cn1 ?
Response: -7.79

Query: Likewise for N#Cc1cccc(-c2nc(-c3cccnc3)no2)c1 ?
Response: -2.96

Query: Likewise for CNC(=O)[C@H]1O[C@@H](n2cnc3c(NCc4cccc(I)c4)ncnc32)[C@H](O)[C@@H]1O ?
Response: -5.89

Query: Likewise for CC(C)(C)NCC(O)COc1cccc2[nH]c(=O)[nH]c12 (stereo unspecified) ?
Response: -8.82

Query: Likewise for O=C1NC(c2ccccn2)Sc2ccccc21 (stereo unspecified) ?
Response: -1.67

Query: Likewise for CN1CCN(C(=O)C(C)(C)c2ccc(C(=O)Nc3cn4cc(-c5ccncc5)ccc4n3)cc2)CC1 ?
Response: 6.5

Query: Likewise for O=c1c(Br)ccc2n1C[C@@H]1CNC[C@H]2C1 ?
Response: -0.226

Query: Likewise for C[S+]([O-])c1ccc(-c2nc(-c3ccc(F)cc3)c(-c3ccncc3)[nH]2)cc1 (stereo unspecified) ?
Response: -3.45

Query: Likewise for C[C@@H](N)Cc1c[nH]cn1 ?
Response: -6.39

Query: Likewise for CO[C@@H](C)c1c(Nc2ccc([C@@H](N(C)C(=O)C3CCS(=O)(=O)CC3)C(F)(F)F)cc2)cnc2cc(Cl)nn12 ?
Response: 0.795

Query: Likewise for CC1CCN(CC[C@H]2CCCN2S(=O)(=O)c2cccc(O)c2)CC1 ?
Response: -9.71

Query: Likewise for O=C1NCCc2c(OCCCCN3CCCCC3)cccc21 ?
Response: -4.57

Query: Likewise for CCn1c(CNC(=O)c2nc(Cl)cnc2N)[n+](CC)c2ccc(C(=O)N(C)CCN(C)C)cc21 ?
Response: 2.92

Query: Likewise for Cc1cc(NC(=O)Nc2ccc(N(C)C)cc2)c2cc(F)cc(F)c2n1 ?
Response: -7.93

Query: Likewise for CN1CCN(c2nc(N)c3ccccc3n2)CC1 ?
Response: -6.76

Query: Likewise for O=C(NNC(=O)c1ccc(CNS(=O)(=O)c2ccc(F)c(Cl)c2)cc1)c1ccccc1 ?
Response: -0.108

Query: Likewise for CCOc1ccc(S(=O)(=O)Nc2ccc(Cl)cc2C#Cc2cnc(C(=O)O)cc2OC)c2ncccc12 ?
Response: 7.85

Query: Likewise for O=C(O)CCCc1cc2cc(Cl)ccc2n1S(=O)(=O)c1ccc2ncsc2c1 ?
Response: -3.11

Query: Likewise for CN1CCN(c2ccnc(NCCc3ccccc3)n2)CC1 ?
Response: 6.53

Query: Likewise for COc1cc(Nc2nccc(-c3cnn4nc(OC)ccc34)n2)cc(C(F)(F)F)c1 ?
Response: -0.0969

Query: Likewise for O=[N+]([O-])c1ccc(CN2CCOCCOCCN(Cc3ccc([N+](=O)[O-])cc3)CCOCC2)cc1 ?
Response: -6.52

Query: Likewise for O=C(NC[C@@H]1[C@H]2CN(C(=O)OCc3cc(C(F)(F)F)cc(C(F)(F)F)c3)C[C@@H]12)c1ccc2[nH]nnc2c1 ?
Response: -1.24

Query: Likewise for C=C(C)[C@H]1CN[C@H](C(=O)O)[C@H]1CC(=O)O ?
Response: -5.09

Query: Likewise for CC(C)c1onc(-c2c(Cl)cccc2Cl)c1COc1ccc(/C=C/c2cccc(C(=O)O)c2)c(Cl)c1 ?
Response: 4.8

Query: Likewise for C=CC(=O)Nc1cccc(C(=O)Nc2ccc(Nc3cc(-c4[nH]c(S)nc4C)ccn3)cc2)c1 ?
Response: 3.19

Query: Likewise for O=C(NCCS(=O)(=O)c1ccc(C(F)(F)F)cn1)c1ccc(Cl)cc1 ?
Response: 0.131

Query: Likewise for Cc1cnc(-c2cc(Cl)ccc2F)cc1-n1c(=O)n(CC(N)=O)c2ccccc21 ?
Response: 1.32

Query: Likewise for COc1ccc(Oc2cc(NCCC(F)(F)F)c3ncc(-c4ccc(C(=O)NC5CC5)c(C)c4)n3n2)c(F)c1F ?
Response: 0.303

Query: Likewise for OC(c1ccc(-c2ccc(CN3CCN(Cc4ccncc4)CC3)cc2)c(F)c1)(C(F)(F)F)C(F)(F)F ?
Response: -1.04

Query: Likewise for CCC(=N\O)/C(C)=C/c1ccc(F)c(C)c1 ?
Response: 3.87

Query: Likewise for CC(C)C[C@H](NC(=O)c1cc2ccccc2s1)C(=O)N1CCN(C(=O)[C@H](CO)NS(=O)(=O)c2ccc(Cl)cc2Cl)CC1 ?
Response: -1.45

Query: Likewise for CC(C)(C(=O)O)c1ccc(C(O)CCCN2CCC(C(O)(c3ccccc3)c3ccccc3)CC2)cc1 (stereo unspecified) ?
Response: -8.82

Query: Likewise for C[C@@]1(Cc2ccc(C#N)cc2)C(=O)N(c2cc(Cl)cc(Cl)c2)c2ncc(C(=O)NC3(c4nc(C5CCC5)no4)CC3)n21 ?
Response: 3.21

Query: Likewise for NCCc1ccc(O)c(O)c1 ?
Response: -7.47

Query: Likewise for CC(C)(O)CNc1ncc(-c2ccnc(Nc3ccnc(Cl)c3)n2)c(CC2CC2)n1 ?
Response: -2.03

Query: Likewise for CCn1c(CNC(=O)c2ncc(C)nc2N)[n+](CC)c2ccc(C(=O)N(C)CCN(C)C)cc21 ?
Response: -0.563

Query: Likewise for CC1(C)CCC[C@]2(C)[C@@H](C=O)C(C=O)=CC[C@@H]12 ?
Response: 2.98
